- target-of-assay: FGFR3 (h) (Homo sapiens)
- Sequence (P22607 23-806): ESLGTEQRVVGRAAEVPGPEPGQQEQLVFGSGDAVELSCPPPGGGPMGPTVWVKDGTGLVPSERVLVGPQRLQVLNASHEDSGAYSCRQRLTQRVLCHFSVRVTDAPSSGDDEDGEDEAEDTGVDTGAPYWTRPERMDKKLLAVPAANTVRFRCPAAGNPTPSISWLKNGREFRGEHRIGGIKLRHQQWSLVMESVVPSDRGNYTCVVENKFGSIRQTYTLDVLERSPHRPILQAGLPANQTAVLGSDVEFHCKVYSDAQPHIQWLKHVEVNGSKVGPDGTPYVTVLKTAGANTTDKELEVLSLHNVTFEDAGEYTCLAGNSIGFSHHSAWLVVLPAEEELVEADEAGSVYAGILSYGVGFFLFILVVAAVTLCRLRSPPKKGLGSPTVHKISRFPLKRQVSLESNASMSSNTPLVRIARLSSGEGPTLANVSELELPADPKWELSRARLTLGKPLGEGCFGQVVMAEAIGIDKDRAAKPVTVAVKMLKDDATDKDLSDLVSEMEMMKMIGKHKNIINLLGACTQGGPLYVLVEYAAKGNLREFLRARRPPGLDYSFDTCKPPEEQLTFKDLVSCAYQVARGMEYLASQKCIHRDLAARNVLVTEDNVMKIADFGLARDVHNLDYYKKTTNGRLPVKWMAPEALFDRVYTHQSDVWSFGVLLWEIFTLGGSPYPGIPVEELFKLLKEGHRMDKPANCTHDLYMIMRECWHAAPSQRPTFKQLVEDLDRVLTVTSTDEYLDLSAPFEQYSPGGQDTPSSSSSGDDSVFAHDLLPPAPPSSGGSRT
- test-details: FGFR3 (enzymatic assay), TR-FRET
- Assay type: biochemical
- test-parameters: read-out: FGFR 3 pIC50 (converted)
measurement-type: IC50 (nM)

The examples below pair each entry with its known result.
CNC(=O)c1cc(-c2cnc3ccc(N(CCN4CCCC4=O)c4cc(OC)cc(OC)c4)cc3n2)ccn1 = 282
COc1cc(OC)cc(N(CCNC(C)C)c2ccc3ncc(-c4ccc(N5CCN(C)CC5)nc4)nc3c2)c1 = 6.17
COc1cc(OC)cc(N(CCNC(C)C)c2ccc3ncc(NCC4CCNCC4)nc3c2)c1 = 44.7
COc1cc(OC)cc(N(CC2CC2)c2ccc3ncc(-n4cncn4)nc3c2)c1 = 447
COc1cc(OC)cc(N(CCCO)c2ccc3ncc(-c4ccnc(Cl)c4)nc3c2)c1 = 10.2

I: COc1cc(OC)cc(N(CC2CC2)c2ccc3ncc(-c4nnc(C)o4)nc3c2)c1
II: COc1cc(OC)cc(N(CCCO)c2ccc3ncc(-c4ccc(N(C)C(=O)OC(C)(C)C)nc4)nc3c2)c1
III: COc1cc(OC)cc(N(CCCO)c2ccc3ncc(-c4ccnc(NC(=O)OC(C)(C)C)c4)nc3c2)c1
IV: COCC(O)CN(c1cc(OC)cc(OC)c1)c1ccc2ncc(-c3cccnc3)nc2c1 (single isomer, unassigned) [Compound 46]
Let's sort these by IC50, smallest first. Go ahead? Form field (ranking): labels in requested order. IV, III, II, I

The measured values listed here are drawn from patent US10052320B2.
